assay: Inhibition of Bos taurus (bovine) heart mitochondrial […] activity assessed per mg protein
RECORDED ENDPOINT: IC50 (nmol)
Give a bare numeral; the unit nmol is implied.

Below: 3 molecules and their reported IC50.
>>> numeric_readout("CC[C@H](C)[C@@H](OC(C)=O)[C@@H](C)C1=CC(=O)C2=C(O[C@]3(C)CC[C@H]4O[C@@H](C(C)(C)O)CC[C@]4(C)[C@H]3[C@@H]2O)C1=O")
115
>>> numeric_readout("CC[C@H](C)C(=O)[C@@H](C)C1=CC(=O)C2=C(O[C@]3(C)CC[C@H]4O[C@@H](C(C)(C)O)CC[C@]4(C)[C@H]3C2)C1=O")
83
>>> numeric_readout("C/C=C(\\C)[C@@H](OC(C)=O)[C@@H](C)C1=CC(=O)C2=C(O[C@]3(C)CC[C@H]4O[C@@H](C(C)(C)O)CC[C@]4(C)[C@H]3[C@@H]2O)C1=O")
160

Record request: IC50 value, item CC[C@H](C)[C@@H](OC(C)=O)[C@@H](C)c1cc(O)c2c(c1O)O[C@]1(C)CC[C@H]3O[C@@H](C(C)(C)O)CC[C@]3(C)[C@H]1C2=O
56
